- system.tested: Transmembrane protease serine 6 (Homo sapiens)
- Sequence (Q8IU80 whole entry): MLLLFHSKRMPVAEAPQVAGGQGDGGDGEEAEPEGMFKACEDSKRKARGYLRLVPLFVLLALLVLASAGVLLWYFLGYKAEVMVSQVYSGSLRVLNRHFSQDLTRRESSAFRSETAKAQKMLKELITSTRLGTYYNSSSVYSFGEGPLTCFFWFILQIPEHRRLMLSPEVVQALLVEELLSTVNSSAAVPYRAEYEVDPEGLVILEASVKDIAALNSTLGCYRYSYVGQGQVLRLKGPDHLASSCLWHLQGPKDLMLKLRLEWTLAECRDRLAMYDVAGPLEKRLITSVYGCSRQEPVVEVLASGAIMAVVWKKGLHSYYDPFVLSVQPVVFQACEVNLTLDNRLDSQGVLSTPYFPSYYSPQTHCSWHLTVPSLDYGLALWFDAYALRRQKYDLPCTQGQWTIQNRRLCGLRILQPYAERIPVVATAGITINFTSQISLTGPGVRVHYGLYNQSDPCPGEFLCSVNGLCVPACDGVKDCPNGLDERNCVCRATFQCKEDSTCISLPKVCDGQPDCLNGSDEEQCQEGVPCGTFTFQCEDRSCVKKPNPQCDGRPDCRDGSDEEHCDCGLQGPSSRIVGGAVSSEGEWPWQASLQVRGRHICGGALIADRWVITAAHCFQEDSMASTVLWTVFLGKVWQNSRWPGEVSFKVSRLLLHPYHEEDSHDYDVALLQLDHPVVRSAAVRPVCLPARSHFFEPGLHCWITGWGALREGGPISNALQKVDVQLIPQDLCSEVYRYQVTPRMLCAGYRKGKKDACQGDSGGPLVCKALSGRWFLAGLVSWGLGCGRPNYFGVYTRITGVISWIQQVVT
- assay.explanation: Inhibition of human TMPRSS6 transfected in HEK293SL cells using Boc-QAR-AMC as substrate measured for 24 hrs
Listed below: IC50 values for each entry.

The examples below pair each entry with its known result.
N=C(N)NCCC[C@H](NC(=O)[C@@H](NC(=O)[C@H](CCc1ccccc1)NC(=O)CCc1ccccc1)C1CCCCC1)C(=O)c1nc2ccccc2s1 : 332 nM
N=C(N)NCCC[C@H](NC(=O)[C@@H](NC(=O)[C@H](Cc1cscn1)NC(=O)CCc1ccccc1)C1CCCCC1)C(=O)c1nc2ccccc2s1 : 22 nM

Now, please, on to the next molecule.
Query: Tell us which IC50 value is on record for `CC(C)[C@H](NC(=O)[C@H](Cc1cscn1)NC(=O)CCc1ccccc1)C(=O)N[C@@H](CCCNC(=N)N)C(=O)c1nc2ccccc2s1`
Result: 4.4 nM

###

- system.tested: UniProt Q9Y5Y6
- Sequence (Q9Y5Y6 whole entry): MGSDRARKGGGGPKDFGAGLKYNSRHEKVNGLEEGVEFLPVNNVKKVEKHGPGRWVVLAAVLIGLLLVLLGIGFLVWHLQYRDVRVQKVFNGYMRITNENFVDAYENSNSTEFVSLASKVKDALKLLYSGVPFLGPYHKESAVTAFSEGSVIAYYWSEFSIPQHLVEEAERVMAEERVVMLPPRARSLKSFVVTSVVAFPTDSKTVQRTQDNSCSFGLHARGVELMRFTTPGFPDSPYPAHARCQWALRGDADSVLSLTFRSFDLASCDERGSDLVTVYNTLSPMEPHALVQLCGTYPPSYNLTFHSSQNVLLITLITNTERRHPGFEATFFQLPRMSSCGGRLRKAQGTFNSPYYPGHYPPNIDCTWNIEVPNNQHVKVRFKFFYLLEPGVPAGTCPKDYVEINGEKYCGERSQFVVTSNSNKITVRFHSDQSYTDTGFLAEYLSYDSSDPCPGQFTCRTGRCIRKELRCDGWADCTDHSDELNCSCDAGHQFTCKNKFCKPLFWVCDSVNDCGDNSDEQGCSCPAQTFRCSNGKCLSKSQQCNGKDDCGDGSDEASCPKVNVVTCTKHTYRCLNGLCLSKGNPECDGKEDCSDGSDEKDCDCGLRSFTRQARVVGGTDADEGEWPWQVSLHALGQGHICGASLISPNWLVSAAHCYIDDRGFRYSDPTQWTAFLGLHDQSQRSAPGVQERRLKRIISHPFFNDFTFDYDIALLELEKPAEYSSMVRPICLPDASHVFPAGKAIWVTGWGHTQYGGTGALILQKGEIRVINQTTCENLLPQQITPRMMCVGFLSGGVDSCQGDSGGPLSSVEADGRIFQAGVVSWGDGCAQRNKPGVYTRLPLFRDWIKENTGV
- assay.explanation: Mixed inhibition of recombinant human Matriptase using Boc-QAR-AMC as substrate assessed as inhibition constant by fluorescence based analysis
measured.attribute: Ki (nM)
Provide the reading as a plain figure in nM.

N=C(N)NCCC[C@H](NC(=O)[C@@H](NC(=O)[C@H](CCc1ccccc1)NC(=O)CCc1ccccc1)C1CCCCC1)C(=O)c1nc2ccccc2s1 : 618

Now, please, on to the next compound.
Query: Provide measured Ki on UniProt Q9Y5Y6 for `N=C(N)NCCC[C@H](NC(=O)[C@@H](NC(=O)[C@H](Cc1cscn1)NC(=O)CCc1ccccc1)C1CCCCC1)C(=O)c1nc2ccccc2s1` please.
Result: 100

Measured values drawn from ChEMBL document CHEMBL5550199 for this set.
